Reference source: paper PMC10786891

- system tested: T1, EsCas13d, nuclease-dead (Eubacterium siraeum, UniProt B0MS50, R295A;H300A;R849A;H854A)
- T1 sequence: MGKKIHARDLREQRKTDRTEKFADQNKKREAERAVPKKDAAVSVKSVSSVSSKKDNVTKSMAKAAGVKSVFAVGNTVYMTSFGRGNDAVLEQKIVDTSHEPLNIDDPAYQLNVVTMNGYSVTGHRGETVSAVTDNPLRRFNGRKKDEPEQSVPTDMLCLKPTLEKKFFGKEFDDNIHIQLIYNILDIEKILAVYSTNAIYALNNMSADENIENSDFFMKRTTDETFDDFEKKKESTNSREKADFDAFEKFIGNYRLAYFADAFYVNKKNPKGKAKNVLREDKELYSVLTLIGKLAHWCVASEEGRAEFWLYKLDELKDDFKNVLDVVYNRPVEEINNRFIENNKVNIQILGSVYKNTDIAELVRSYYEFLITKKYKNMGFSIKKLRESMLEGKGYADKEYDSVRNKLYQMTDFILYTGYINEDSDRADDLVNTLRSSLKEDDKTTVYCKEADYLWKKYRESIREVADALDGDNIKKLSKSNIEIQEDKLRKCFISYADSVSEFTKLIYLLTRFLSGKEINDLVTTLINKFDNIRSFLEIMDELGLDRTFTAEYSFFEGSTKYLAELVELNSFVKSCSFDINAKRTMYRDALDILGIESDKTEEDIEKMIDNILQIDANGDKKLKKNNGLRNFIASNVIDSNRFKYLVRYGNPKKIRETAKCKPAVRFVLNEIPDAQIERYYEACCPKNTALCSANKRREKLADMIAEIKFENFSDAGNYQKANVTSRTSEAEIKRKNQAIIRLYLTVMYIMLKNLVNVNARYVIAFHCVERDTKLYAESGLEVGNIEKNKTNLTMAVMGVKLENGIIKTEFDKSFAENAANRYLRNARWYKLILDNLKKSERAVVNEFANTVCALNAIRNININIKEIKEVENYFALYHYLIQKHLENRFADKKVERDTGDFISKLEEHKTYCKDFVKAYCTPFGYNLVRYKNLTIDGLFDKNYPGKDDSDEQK
- experiment notes: crRNA (strand 1, pre-loaded); Mg2+; 40 mM Tris-HCl pH 7.5, 150 mM NaCl, 6 mM MgCl2, 1 mM DTT, 0.1% Tween-20, 0.2 mg/ml BSA; 25 C; 10 min per concentration, then washed
- experimental context: tags: His6-TwinStrep-SUMO cleaved; N-terminal SNAP kept (SNAP-Surface 488); label: 3' end held by stalled T7 RNA polymerase
recorded metric: pKd
// pKd: -log10(molar conc.)

target 1 insU 3' of 15 (mixed) RNA 1: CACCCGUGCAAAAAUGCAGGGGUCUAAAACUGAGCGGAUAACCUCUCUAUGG RNA 2: GGGAAUGGAUCCACAUCUACGAAUUCGUACCAUAGAGUAGGUUAUCCGCUCACCGAGAUCGGAAGAGCACACGU = 8.06

Now examine the next entry.
Query :: // Input: target 1 insG 3' of 9,insU 3' of 9 (mixed) RNA 1: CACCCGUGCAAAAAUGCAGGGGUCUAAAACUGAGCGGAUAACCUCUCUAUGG RNA 2: GGGAAUGGAUCCACAUCUACGAAUUCGUACCAUAGAGAGGUUAGUUCCGCUCACCGAGAUCGGAAGAGCACACGU . Output its pKd only.
Result :: 7.75
